What EC50 was measured for each of the following?
target-system: Cannabinoid receptor 2 (Homo sapiens, UniProt P34972)
Sequence (P34972 whole entry): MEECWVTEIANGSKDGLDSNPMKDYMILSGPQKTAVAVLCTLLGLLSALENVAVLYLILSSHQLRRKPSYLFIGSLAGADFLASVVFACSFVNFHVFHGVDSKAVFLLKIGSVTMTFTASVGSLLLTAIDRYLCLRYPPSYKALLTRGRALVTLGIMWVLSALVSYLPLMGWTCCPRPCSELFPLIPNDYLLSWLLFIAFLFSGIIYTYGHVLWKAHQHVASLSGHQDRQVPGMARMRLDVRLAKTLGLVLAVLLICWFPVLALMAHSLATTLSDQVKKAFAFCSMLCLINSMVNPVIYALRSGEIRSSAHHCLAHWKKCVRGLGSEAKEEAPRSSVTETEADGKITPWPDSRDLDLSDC
experiment-description: Agonist activity at human recombinant Cannabinoid receptor 2 by GTPgammaS binding assay
Format: functional
test-conditions: read-out: pEC50 (converted)
Respond with the bare value in nM.

Task item: # EC50 lookup, item `Cc1ccc(S(=O)(=O)Oc2ccc3c(c2)OC(C)(C)N(Cc2ccc(F)cc2)C3=O)cc1`
Reply: 195

Task item: If you can, please state the reported EC50 value of `N#Cc1cccc(S(=O)(=O)Oc2ccc3c(c2)OC2(CCCCC2)N(Cc2ccccc2)C3=O)c1` .
Reply: 355

Task item: Quick check: EC50 of `O=C1c2ccc(OS(=O)(=O)c3cccc([N+](=O)[O-])c3)cc2OC2(CCOCC2)N1Cc1ccccc1` ?
Reply: 204

Task item: Item `O=C1NC2(CCCCC2)Oc2cc(OS(=O)(=O)c3ccccc3[N+](=O)[O-])ccc21` has what recorded EC50?
Reply: 2140

Task item: Name the reported EC50 value associated with the compound `CN1C(=O)c2ccc(OS(=O)(=O)c3cccc4ccccc34)cc2OC1(C)C`
Reply: 2950

Task item: // lookup EC50 for `N#Cc1ccc(S(=O)(=O)Oc2ccc3c(c2)OC2(CCCCC2)N(Cc2ccccc2)C3=O)cc1`
Reply: 288

Task item: // returns reported EC50 for input `COc1cccc(S(=O)(=O)Oc2ccc3c(c2)OC2(CCCCC2)N(CCCCC#N)C3=O)c1`
Reply: 776

Task item: # query: EC50 of entry `Cn1ccc(S(=O)(=O)Oc2ccc3c(c2)OC2(CCCCC2)N(Cc2ccc(C#N)cc2)C3=O)n1`
Reply: 372

Task item: Entry `Cn1cnc(S(=O)(=O)Oc2ccc3c(c2)OC2(CCCCC2)N(Cc2ccccc2)C3=O)c1` has what EC50?
Reply: 1000

Task item: Which measured EC50 value corresponds to `COc1ccc(S(=O)(=O)Oc2ccc3c(c2)OC2(CCCCC2)N(Cc2ccccc2)C3=O)cc1` ?
Reply: 1480

Task item: # lookup: EC50 of `COc1cccc(S(=O)(=O)Oc2ccc3c(c2)OC2(CCCCC2)N(Cc2ccccc2)C3=O)c1`
Reply: 417

Task item: Item `O=C1c2ccc(OS(=O)(=O)Cc3ccccc3)cc2OC2(CCCCC2)N1Cc1ccccc1` has what recorded EC50?
Reply: 759
